- PROTOCOL_DESCRIPTION: Half life in Wistar rat at 1 mg/kg, iv
- Assay type: ADME, organism-based
- Design: dose 1 mg/kg, route intravenous
- DETAILS: in vivo
REPORTED_ENDPOINT: half-life (h)
Express it in h; write the number only.

Reported half-life ( CCCNS(=O)(=O)Nc1ncnc(OCCOc2ncc(Br)cn2)c1-c1ccc(Br)cc1 ) = 5.1

----------
- ASSAY_TARGET: Endothelin-1 receptor (Homo sapiens)
- Sequence (P25101 whole entry): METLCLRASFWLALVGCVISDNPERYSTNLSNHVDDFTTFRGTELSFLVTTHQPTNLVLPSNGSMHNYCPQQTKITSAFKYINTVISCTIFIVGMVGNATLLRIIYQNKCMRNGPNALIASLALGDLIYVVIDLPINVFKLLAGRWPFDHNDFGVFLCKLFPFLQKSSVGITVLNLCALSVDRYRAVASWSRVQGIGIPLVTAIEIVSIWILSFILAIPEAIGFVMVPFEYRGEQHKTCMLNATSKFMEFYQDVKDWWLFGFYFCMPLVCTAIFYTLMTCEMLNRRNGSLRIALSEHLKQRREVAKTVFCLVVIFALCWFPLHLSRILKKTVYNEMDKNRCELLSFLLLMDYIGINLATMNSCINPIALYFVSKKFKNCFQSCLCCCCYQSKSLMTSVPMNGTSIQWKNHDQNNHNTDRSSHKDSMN
- PROTOCOL_DESCRIPTION: Displacement of [I125]ET1 from recombinant ETA receptor expressed in CHO cells after 2 hrs by TopCount analysis
- Format: cell-based
pIC50: −log10 of the molar value.
Record rule met whenever pIC50 is at 8 or higher; record rule not met when lower.

Example results:
[
  {
    "CHEM_SMILES": "COc1ccccc1Oc1c(NS(=O)(=O)CCc2ccccc2)nc(-c2ncccn2)nc1OCCO",
    "ASSAY_TARGET": "Endothelin-1 receptor (Homo sapiens)",
    "GROUP": "rule not met"
  },
  {
    "CHEM_SMILES": "COc1ccccc1Oc1c(NS(=O)(=O)N2CCOCC2)nc(-c2ncccn2)nc1OCCOc1ncc(Br)cn1",
    "ASSAY_TARGET": "Endothelin-1 receptor (Homo sapiens)",
    "GROUP": "rule not met"
  },
  {
    "CHEM_SMILES": "COc1cnc(OCCOc2nc(-c3ncccn3)nc(NS(=O)(=O)CCc3ccccc3)c2Oc2ccccc2OC)nc1",
    "ASSAY_TARGET": "Endothelin-1 receptor (Homo sapiens)",
    "GROUP": "rule met"
  },
  {
    "CHEM_SMILES": "CCc1ccc(-c2c(NS(=O)(=O)NCc3ccccc3)ncnc2OCCOc2ncc(Br)cn2)cc1",
    "ASSAY_TARGET": "Endothelin-1 receptor (Homo sapiens)",
    "GROUP": "rule met"
  },
  {
    "CHEM_SMILES": "COc1cccc(Oc2c(NS(=O)(=O)NCc3ccccc3)ncnc2OCCOc2ncc(Br)cn2)c1",
    "ASSAY_TARGET": "Endothelin-1 receptor (Homo sapiens)",
    "GROUP": "rule met"
  },
  {
    "CHEM_SMILES": "O=S(=O)(Nc1ncnc(OCCOc2ncc(Br)cn2)c1-c1ccc(Br)cc1)N1CCOCC1",
    "ASSAY_TARGET": "Endothelin-1 receptor (Homo sapiens)",
    "GROUP": "rule met"
  }
]

Please tell me: is the compound CCCNS(=O)(=O)Nc1nc(-c2ncccn2)nc(OCCOc2ncc(Br)cn2)c1Oc1ccccc1OC at or over 8 in terms of pIC50?
rule met

Please tell me: is the compound CCNS(=O)(=O)Nc1ncnc(OCCOc2ncc(Br)cn2)c1-c1ccc(Br)cc1 at or over 8 in terms of pIC50?
rule met

Please tell me: is the compound CCCCNS(=O)(=O)Nc1ncnc(OCCOc2ncc(Br)cn2)c1-c1ccc(Br)cc1 at or over 8 in terms of pIC50?
rule met

Please tell me: is the compound COc1ccccc1Oc1c(NS(C)(=O)=O)nc(-c2ncccn2)nc1OCCO at or over 8 in terms of pIC50?
rule not met

Please tell me: is the compound COc1ccccc1Oc1c(NS(=O)(=O)Cc2ccccc2)nc(-c2ncccn2)nc1OCCOc1ncc(Br)cn1 at or over 8 in terms of pIC50?
rule not met

Please tell me: is the compound CCCNS(=O)(=O)Nc1ncnc(OCCOc2ncc(Br)cn2)c1-c1ccc(Br)cc1 at or over 8 in terms of pIC50?
rule met

Please tell me: is the compound COc1ccccc1Oc1c(NS(=O)(=O)c2ccc(C(C)(C)C)cc2)nc(-c2ncccn2)nc1OCCOc1ncc(Br)cn1 at or over 8 in terms of pIC50?
rule met

Please tell me: is the compound COc1ccccc1Oc1c(NS(=O)(=O)CCc2ccccc2)nc(-c2ncccn2)nc1OCCOc1ncc(Br)cn1 at or over 8 in terms of pIC50?
rule met

Source listed as ChEMBL document CHEMBL2163289.
